# shrunken log2 fold change per record follows
System: Escherichia coli TOP10
Assay: shrunken log2 fold change of peptide-encoding DNA abundance (4.5 h post-induction vs induction); higher = less antimicrobial activity (less host growth inhibition)
Conditions: time post-induction: 4.5 h; library: site-saturation at positions 5, 18, 19, 20

{"columns": ["SEQUENCE_TEXT", "shrunken log2 fold change"],
 "data": [
  ["RRIRQRPPRLPRPRPRPNFNPRP", -0.295],
  ["RRIRGRPPRLPRPRPRPFMFPRP", 1.16],
  ["RRIRDRPPRLPRPRPRPKGWPRP", 0.589],
  ["RRIRLRPPRLPRPRPRPIRFPRP", -0.185],
  ["RRIRKRPPRLPRPRPRPCSAPRP", -0.0728],
  ["RRIRDRPPRLPRPRPRPFNFPRP", -0.703],
  ["RRIRTRPPRLPRPRPRPWCAPRP", -0.203],
  ["RRIRLRPPRLPRPRPRPRYCPRP", -0.357],
  ["RRIRLRPPRLPRPRPRPEQTPRP", -0.000687],
  ["RRIRPRPPRLPRPRPRPTKSPRP", 0.777],
  ["RRIRIRPPRLPRPRPRPQKKPRP", -0.0235],
  ["RRIRRRPPRLPRPRPRPPPSPRP", 1.21],
  ["RRIRDRPPRLPRPRPRPCAGPRP", 0.0969],
  ["RRIRLRPPRLPRPRPRPRDAPRP", 0.469],
  ["RRIRDRPPRLPRPRPRPACTPRP", 0.642]
]}

* * *

Test system: Escherichia coli TOP10
Test: shrunken log2 fold change of peptide-encoding DNA abundance (4.5 h post-induction vs induction); higher = less antimicrobial activity (less host growth inhibition)
Details: time post-induction: 4.5 h; library: site-saturation at positions 5, 18, 19, 20
OUTCOME_MEASURE: shrunken log2 fold change

{"columns": ["SEQUENCE_TEXT", "TARGET_DESC", "VAL"],
 "data": [
  ["RRIRHRPPRLPRPRPRPYQNPRP", "Escherichia coli TOP10", 0.0439],
  ["RRIRGRPPRLPRPRPRPSTYPRP", "Escherichia coli TOP10", -0.189],
  ["RRIRHRPPRLPRPRPRPKNVPRP", "Escherichia coli TOP10", -0.0354],
  ["RRIRVRPPRLPRPRPRPKQRPRP", "Escherichia coli TOP10", 0.157],
  ["RRIRERPPRLPRPRPRPGMAPRP", "Escherichia coli TOP10", 0.188],
  ["RRIRCRPPRLPRPRPRPKRGPRP", "Escherichia coli TOP10", 0.27],
  ["RRIRMRPPRLPRPRPRPFEEPRP", "Escherichia coli TOP10", 0.0197],
  ["RRIRTRPPRLPRPRPRPSIDPRP", "Escherichia coli TOP10", -0.397]
]}

* * *

Quick list: shrunken log2 fold change per entry.
System: Escherichia coli TOP10;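 further: peptides expressed intracellularly from a pBAD plasmid library in pooled LB shake-flask culture, induced with 0.3% L-arabinose, DNA abundance read by NGS, three biological replicates, DESeq2 with apeglm shrinkage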
Assay: shrunken log2 fold change of peptide-encoding DNA abundance (4.5 h post-induction vs induction); higher = less antimicrobial activity (less host growth inhibition)
Conditions: time post-induction: 4.5 h; library: site-saturation at positions 5, 18, 19, 20

{"columns": ["SEQUENCE_TEXT", "shrunken log2 fold change"],
 "data": [
  ["RRIRVRPPRLPRPRPRPLGQPRP", 0.131],
  ["RRIRLRPPRLPRPRPRPPFRPRP", 0.526],
  ["RRIRYRPPRLPRPRPRPCVYPRP", -0.197],
  ["RRIRHRPPRLPRPRPRPFYDPRP", -0.837],
  ["RRIRSRPPRLPRPRPRPMSWPRP", 0.0314],
  ["RRIRSRPPRLPRPRPRPGAQPRP", 0.68],
  ["RRIRDRPPRLPRPRPRPSNFPRP", -0.0206],
  ["RRIRFRPPRLPRPRPRPMQLPRP", 0.0166],
  ["RRIRGRPPRLPRPRPRPMIFPRP", 0.283],
  ["RRIRKRPPRLPRPRPRPTFKPRP", 0.0344],
  ["RRIRGRPPRLPRPRPRPCTNPRP", 0.247],
  ["RRIRTRPPRLPRPRPRPSNQPRP", -0.14],
  ["RRIRIRPPRLPRPRPRPTCEPRP", -0.132],
  ["RRIRCRPPRLPRPRPRPSEMPRP", -0.286],
  ["RRIRCRPPRLPRPRPRPYTPPRP", -1.23]
]}
